tested on: Pepsin; construct: purchased Merck Millipore; experiment: Protease stability in simulated gastric fluid (Pepsin-SGF, FaSSGF); format: in vitro ADME; details: simulated gastric fluid with pepsin (Pepsin-SGF), 60 min, 1 μM peptide, 37° C., read-out: FaSSGF 60 (min), remaining percent of peptide
Starred links: 1 amine or outer side, 2 acyl side, 3 side chain; linkers in the order of their positions; H or OH if unused. Positions of bridges follow the written chain, without caps; N, C: chain ends. Non-standard residues stand in square brackets, D forms with d. Residues, ends and D or L forms follow the SMILES beside them. *: point of attachment. X3 = CN(CCCCC(=O)N[C@@H](CS[*:2])C(=O)[*:1])[*:3]; Trp(7-Me) = Cc1cccc2c(C[C@H](N)C(=O)O)c[nH]c12; 2Nal = N[C@@H](Cc1ccc2ccccc2c1)C(=O)O; AEF = NCCOc1ccc(C[C@H](N)C(=O)O)cc1; Me2NCH2CH2 = CN(C)CC*; Aib = CC(C)(N)C(=O)O; Ava = NCCCCC(=O)O
Listed next: entries and their corresponding remaining at 1 h, 1 µM.

# compound, target-desc, units-of-measure, remaining at 1 h, 1 µM
records = [
    ("CC(=O)N[C@H]1CCCCNC(=O)[C@@H]2CSSC[C@H](NC(=O)[C@H](CCC(N)=O)NC(=O)[C@H](Cc3c[nH]c4ccccc34)NC1=O)C(=O)N[C@@H](Cc1ccc(OCCN)cc1)C(=O)N[C@@H](Cc1ccc3ccccc3c1)C(=O)NC(C)(C)C(=O)N[C@H](C(=O)N[C@@H](C)C(=O)N[C@H](CC(C)C)C(N)=O)CCC(=O)N(C)CCCCC(=O)N2 [compound 19] (Ac-KWQC[AEF][2Nal][Aib]EA[dL]-NH2; linker 1-4-8 via X3)", "Pepsin", "%", 79),
    ("Cc1cccc2c(C[C@@H]3NC(=O)[C@H]([C@@H](C)O)NC(=O)[C@H](CC(N)=O)NC(=O)[C@@H]4CSSC[C@H](NC(=O)[C@H](CCC(N)=O)NC3=O)C(=O)N[C@@H](Cc3ccc(OCCN(C)C)cc3)C(=O)N[C@@H](Cc3ccc5ccccc5c3)C(=O)NC(C)(C)C(=O)N[C@H](C(=O)N[C@@H](CC(N)=O)C(=O)N[C@@H](Cc3c[nH]cn3)C(N)=O)CCC(=O)NCCCCC(=O)N4)c[nH]c12 [compound 52] ([Ava]CNT[Trp(7-Me)]QCY(Me2NCH2CH2)[2Nal][Aib]ENH-NH2; disulfide 2-7; lactam N-11)", "Pepsin", "%", 102),
]
